target: T1, human PCSK9 (proprotein convertase subtilisin kexin type 9) (human, UniProt Q8NBP7 31-692); assay: BLI, biotinylated hPCSK9 on sensor tips
T1 construct: Directly immobilized (SPR ProteOn), biotinylated (BLI), or in solution, depending on the assay; also called hPCSK9
T1 sequence (Q8NBP7 31-692 limits assumed): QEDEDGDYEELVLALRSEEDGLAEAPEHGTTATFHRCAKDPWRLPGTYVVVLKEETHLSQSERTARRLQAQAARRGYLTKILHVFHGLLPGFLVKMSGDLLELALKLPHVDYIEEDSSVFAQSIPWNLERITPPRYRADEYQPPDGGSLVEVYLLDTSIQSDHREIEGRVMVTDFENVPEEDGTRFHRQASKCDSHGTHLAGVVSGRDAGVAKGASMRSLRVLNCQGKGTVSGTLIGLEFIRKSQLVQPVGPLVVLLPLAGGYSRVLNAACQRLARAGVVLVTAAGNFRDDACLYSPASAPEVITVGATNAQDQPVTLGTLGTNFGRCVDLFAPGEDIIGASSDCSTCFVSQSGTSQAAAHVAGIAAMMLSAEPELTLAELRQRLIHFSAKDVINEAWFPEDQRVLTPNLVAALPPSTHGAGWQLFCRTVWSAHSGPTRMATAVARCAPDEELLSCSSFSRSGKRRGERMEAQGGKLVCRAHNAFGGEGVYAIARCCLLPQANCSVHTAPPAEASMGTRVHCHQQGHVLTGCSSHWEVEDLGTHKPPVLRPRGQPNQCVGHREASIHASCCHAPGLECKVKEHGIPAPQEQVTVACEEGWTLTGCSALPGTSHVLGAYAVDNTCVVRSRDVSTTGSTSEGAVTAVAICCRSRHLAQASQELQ
pKd: −log10 of the molar value.
Listed below: pKd values for each entry.

binder	pKd
ATI001174 (designed binder, PEGylated on the cysteine of the C-terminal EIEKPCQ tail, PEGylated, non-His-tagged cysteine mutant of 2013E01; also called ATI-1174; ATI1174) MGVSDVPRDLEVVAATPTSLLISWVPPSDDYGYYRITYGETGGNSPVQEFTVPIGKGTATISGLKPGVDYTITVYAVEFPWPHAGYYHRPISINYRTEIEKPCQ	8.13
2381G09 (designed binder, Anti-PCSK9 Adnectin, His6-tagged) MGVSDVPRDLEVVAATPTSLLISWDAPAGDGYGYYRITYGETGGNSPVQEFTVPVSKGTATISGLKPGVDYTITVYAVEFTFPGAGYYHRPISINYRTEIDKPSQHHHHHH	8.95
